Target: human muscarinic acetylcholine M3 receptor (M3-ACh) (Homo sapiens)
Construct: expressed in transfected cells; host or cells: CHO-K1 (Chinese Hamster Ovary) cell membranes
Assay: Muscarinic 3 Receptor Binding Assay, % inhibition specific binding at 1 μM
Settings: 1 μM compound, % inhibition specific [3H]-NMS binding
Readout label: inhibition at 1 µM
Returns: string containing the numeric result and its unit.

Example entries and their recorded answers appear below.
Cc1nc(C(=O)N2CCOC3(CCN(CCCCCCCCCNC[C@H](O)c4ccc(O)c5[nH]c(=O)sc45)CC3)C2)c(C)s1 [Example 201] | 98%
Cc1cc(C(=O)N2CCOC3(CCN(CCOc4ccc(CNC[C@H](O)c5ccc(O)c6[nH]c(=O)sc56)cc4)CC3)C2)c(C)s1 [Example 243] | 78%
O=C(c1ccc2ncsc2c1)N1CCOC2(CCN(Cc3cc(F)cc(CCNC[C@H](O)c4ccc(O)c5[nH]c(=O)sc45)c3)CC2)C1 [Example 132] | 85%

Quick one: give measured inhibition at 1 µM for Cc1ccc(C(=O)N2CCOC3(CCN(CCOc4ccc(CNC[C@H](O)c5ccc(O)c6[nH]c(=O)sc56)cc4)CC3)C2)o1 [Example 239]
90%

Quick one: give measured inhibition at 1 µM for O=C(c1ccc2occc2c1)N1CCOC2(CCN(Cc3cc(F)cc(CCNC[C@H](O)c4ccc(O)c5[nH]c(=O)sc45)c3)CC2)C1 [Example 173]
99%

Quick one: give measured inhibition at 1 µM for Cc1nc(C(=O)N2CCOC3(CCN(CCOc4ccc(CNC[C@H](O)c5ccc(O)c6[nH]c(=O)sc56)cc4)CC3)C2)c(C)s1 [Example 242]
83%

====

Target: Adrenergic β2 (H292 cells) (Homo sapiens, UniProt P07550)
Construct: endogenous in cells; host or cells: H292 cells
Sequence (P07550 whole entry): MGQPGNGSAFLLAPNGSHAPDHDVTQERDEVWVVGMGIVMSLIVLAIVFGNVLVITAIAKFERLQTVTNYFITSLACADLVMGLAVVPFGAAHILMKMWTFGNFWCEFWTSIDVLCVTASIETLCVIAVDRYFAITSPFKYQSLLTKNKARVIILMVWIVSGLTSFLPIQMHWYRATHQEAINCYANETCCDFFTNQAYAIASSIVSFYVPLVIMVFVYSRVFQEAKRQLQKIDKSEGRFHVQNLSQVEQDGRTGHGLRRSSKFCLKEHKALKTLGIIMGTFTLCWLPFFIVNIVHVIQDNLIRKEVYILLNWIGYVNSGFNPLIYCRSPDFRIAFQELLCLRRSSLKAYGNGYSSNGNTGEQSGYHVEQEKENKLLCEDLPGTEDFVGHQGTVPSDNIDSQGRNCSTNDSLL
Assay: Assay for Adrenergic β2 Mediated cAMP Production (concentration response, AlphaScreen cAMP detection)
Format: cell-based
Conditions: cAMP production, 60 minutes at room temperature, 300 μM rolipram, read-out: β2 pEC50 (converted)
Reported EC50 values for the following compounds.
Dear colleague, please return just the value in nM, with no unit written.

Quick one: give measured EC50 for CCCCc1nc(C(=O)N2CCOC3(CCN(Cc4cccc(CCNC[C@H](O)c5ccc(O)c6[nH]c(=O)sc56)c4F)CC3)C2)cs1 [Example 78, ditrifluoroacetate]
15.8

Quick one: give measured EC50 for CC(C)c1csc(C(=O)N2CCOC3(CCN(Cc4cccc(CCNC[C@H](O)c5ccc(O)c6[nH]c(=O)sc56)c4F)CC3)C2)c1 [Example 74, ditrifluoroacetate]
12.6

Quick one: give measured EC50 for Cc1nc(C(=O)N2CC(C)(C)OC3(CCN(Cc4cccc(CCNC[C@H](O)c5ccc(O)c6[nH]c(=O)sc56)c4)CC3)C2)cs1 [Example 271, ditrifluoroacetate]
6.31

====

Molecular target: human muscarinic acetylcholine M3 receptor (M3-ACh) (Homo sapiens, UniProt P20309)
Construct: expressed in transfected cells; host or cells: CHO-K1 (Chinese Hamster Ovary) cell membranes
Sequence (P20309 whole entry): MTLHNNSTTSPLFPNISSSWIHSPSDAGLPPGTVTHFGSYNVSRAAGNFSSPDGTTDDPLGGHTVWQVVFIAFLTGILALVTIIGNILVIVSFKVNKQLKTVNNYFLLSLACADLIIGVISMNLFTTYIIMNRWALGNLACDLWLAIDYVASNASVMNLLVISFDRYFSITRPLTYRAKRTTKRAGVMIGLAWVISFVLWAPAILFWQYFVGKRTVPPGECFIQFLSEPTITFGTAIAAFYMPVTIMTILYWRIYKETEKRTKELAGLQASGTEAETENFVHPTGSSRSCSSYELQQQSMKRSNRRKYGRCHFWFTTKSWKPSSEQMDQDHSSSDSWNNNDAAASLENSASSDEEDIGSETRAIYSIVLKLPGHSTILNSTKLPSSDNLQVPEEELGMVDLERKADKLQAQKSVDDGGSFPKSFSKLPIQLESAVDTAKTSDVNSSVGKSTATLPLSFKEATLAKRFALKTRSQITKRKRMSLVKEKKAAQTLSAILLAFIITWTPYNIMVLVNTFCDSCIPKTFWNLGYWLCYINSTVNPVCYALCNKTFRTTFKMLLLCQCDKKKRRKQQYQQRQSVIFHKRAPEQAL
Experiment: Muscarinic 3 Receptor Binding Assay ([3H]NMS competition, SPA)
Settings: [3H]NMS 0.1 nM, CHO-K1 cell membranes, 16 hours at room temperature; read-out: M3 pIC50 (converted)
Readout label: IC50 (nM)
Dear colleague, please return just the value in nM, with no unit written.

Example entries and their recorded answers appear below.
Cc1nc(C(=O)N2CCOC3(CCN(Cc4ccc(CCNC[C@H](O)c5ccc(O)c6[nH]c(=O)sc56)cc4)CC3)C2)cs1 [Example 16, ditrifluoroacetate] | 7.94
CC(C)c1ccc(C(=O)N2CCOC3(CCN(Cc4cccc(CCNC[C@H](O)c5ccc(O)c6[nH]c(=O)sc56)c4F)CC3)C2)s1 [Example 73, ditrifluoroacetate] | 7.94

Query molecule follows.
Quick one: give measured IC50 for O=C(c1ccc2occc2c1)N1CCOC2(CCN(Cc3cc(F)cc(CCNC[C@H](O)c4ccc(O)c5[nH]c(=O)sc45)c3)CC2)C1 [Example 173]
7.94

====

Target: Adrenergic β2 (H292 cells) (Homo sapiens)
Construct: endogenous in cells; host or cells: H292 cells
Assay: Adrenergic β2 Mediated cAMP Production, single concentration 1 μM
Assay type: cell-based
Conditions: NCI-H292, 1 μM compound, percentage of the maximum response generated by 1E-07M formoterol, read-out: β2 (% effect at 1 μM)
Please enter label 1 where activation at 1 µM is greater than or equal to 90%, and label 0 where it is lower.

Reported activation at 1 µM reaches at least 90% for Cc1cc(C(=O)N2CCOC3(CCN(CCCCCCCCCNC[C@H](O)c4ccc(O)c5[nH]c(=O)sc45)CC3)C2)oc1C ?
label 0

Reported activation at 1 µM reaches at least 90% for O=C(c1ccc2c(c1)CCO2)N1CCOC2(CCN(Cc3cc(F)cc(CCNC[C@H](O)c4ccc(O)c5[nH]c(=O)sc45)c3)CC2)C1 ?
label 1

Reported activation at 1 µM reaches at least 90% for CCn1c(=O)n(CC(=O)N2CCOC3(CCN(Cc4cc(F)cc(CCNC[C@H](O)c5ccc(O)c6[nH]c(=O)sc56)c4)CC3)C2)c2ccccc21 ?
label 1

Reported activation at 1 µM reaches at least 90% for O=C(Cc1ccsc1)N1CCOC2(CCN(CCOc3ccc(CNC[C@H](O)c4ccc(O)c5[nH]c(=O)sc45)cc3)CC2)C1 ?
label 0

Reported activation at 1 µM reaches at least 90% for Cc1ccnn1CC(=O)N1CCOC2(CCN(CCOc3ccc(CNC[C@H](O)c4ccc(O)c5[nH]c(=O)sc45)cc3)CC2)C1 ?
label 0

Reported activation at 1 µM reaches at least 90% for O=C(Cc1ccccc1)N1CCOC2(CCN(CCCCCCCCCNC[C@H](O)c3ccc(O)c4[nH]c(=O)sc34)CC2)C1 ?
label 0

Reported activation at 1 µM reaches at least 90% for O=C(c1ccsc1Cl)N1CCOC2(CCN(CCCCCCCCCNC[C@H](O)c3ccc(O)c4[nH]c(=O)sc34)CC2)C1 ?
label 1

Reported activation at 1 µM reaches at least 90% for Cc1nc(C(=O)N2CCOC3(CCN(CCCCCCCCCNC[C@H](O)c4ccc(O)c5[nH]c(=O)sc45)CC3)C2)c(C)s1 ?
label 1

Reported activation at 1 µM reaches at least 90% for O=C(CCCc1ccccc1)N1CCOC2(CCN(CCCCCCCCCNC[C@H](O)c3ccc(O)c4[nH]c(=O)sc34)CC2)C1 ?
label 1

Reported activation at 1 µM reaches at least 90% for O=C(c1cc(-c2ccccc2)n[nH]1)N1CCOC2(CCN(Cc3cc(F)cc(CCNC[C@H](O)c4ccc(O)c5[nH]c(=O)sc45)c3)CC2)C1 ?
label 1

====

Target: Adrenergic β2 (H292 cells) (Homo sapiens, UniProt P07550)
Construct: endogenous in cells; host or cells: H292 cells
Experiment: Assay for Adrenergic β2 Mediated cAMP Production (concentration response, AlphaScreen cAMP detection)
Assay type: cell-based
Details: cAMP production, 60 minutes at room temperature, 300 μM rolipram, read-out: β2 pEC50 (converted)
Response field label: string, one of met (EC50 strictly below 30 nM) or not met.

Here are 5 compounds together with their reported answers.
Cc1nc(C(=O)N2CCOC3(CCN(Cc4cccc(CNC[C@H](O)c5ccc(O)c6[nH]c(=O)ccc56)c4)CC3)C2)cs1 [Example 96, ditrifluoroacetate] | not met
O=C(c1csc(C2CCC2)n1)N1CCOC2(CCN(CCCCCCCCCNC[C@H](O)c3ccc(O)c4[nH]c(=O)sc34)CC2)C1 [Example 220] | met
Cc1nc(C(=O)N2CCOC3(CCN(Cc4ccc(CCNC[C@H](O)c5ccc(O)c6[nH]c(=O)sc56)cc4)CC3)C2)cs1 [Example 16, ditrifluoroacetate] | met
CC(C)c1nc(C(=O)N2CCOC3(CCN(Cc4cccc(C(C)(C)CNC[C@H](O)c5ccc(O)c6[nH]c(=O)sc56)c4F)CC3)C2)cs1 [Example 90, ditrifluoroacetate] | not met
Cc1nc(C(=O)N2CCOC3(CCN(Cc4ccc(CCNC[C@H](O)c5ccc(O)c6[nH]c(=O)ccc56)s4)CC3)C2)cs1 [Example 14, ditrifluoroacetate] | met

Turning now to a further compound:
I wonder whether CC(C)c1ncc(C(=O)N2CCOC3(CCN(Cc4cc(F)cc(CCNC[C@H](O)c5ccc(O)c6[nH]c(=O)sc56)c4)CC3)C2)s1 [Example 55, ditrifluoroacetate] has EC50 below 30 nM. Can you tell?
met

====

Target: Adrenergic β2 (H292 cells) (Homo sapiens, UniProt P07550)
Construct: endogenous in cells; host or cells: H292 cells
Test: Assay for Adrenergic β2 Mediated cAMP Production (concentration response, AlphaScreen cAMP detection)
Format: cell-based
Conditions: fraction relative to the maximum activity determined for formoterol
Readout label: β2 Intrinsic activity
Answer with a number only.

Example entries and their recorded answers appear below.
O=C(c1ccc2occc2c1)N1CCOC2(CCN(CCCCCCCCCNC[C@H](O)c3ccc(O)c4[nH]c(=O)sc34)CC2)C1 | 0.9
CCCc1cc(C(=O)N2CCOC3(CCN(Cc4cccc(CCNC[C@H](O)c5ccc(O)c6[nH]c(=O)sc56)c4)CC3)C2)cs1 [Example 267, ditrifluoroacetate] | 0.9
CC(C)c1nc(C(=O)N2CCOC3(CCN(Cc4ccc(F)c(CCNC[C@H](O)c5ccc(O)c6[nH]c(=O)sc56)c4)CC3)C2)cs1 [Example 47, ditrifluoroacetate] | 0.9

Query molecule follows.
Quote Adrenergic β2 (H292 cells) (Homo sapiens, UniProt P07550) β2 Intrinsic activity for entry Cc1nc(C(=O)N2CCOC3(CCN(CCOc4cccc(CNC[C@H](O)c5ccc(O)c6[nH]c(=O)ccc56)c4)CC3)C2)cs1 [Example 94, ditrifluoroacetate] .
0.7
